The origin of these recorded values is the DeepSol protein solubility set.

# assay_overview: soluble on expression in E. coli; label from the status in PepcDB or PDB records
measurement_type: soluble on expression in E. coli

SSSSSDGGLFRSRPAHSLPPGEDGRVEPYVDFAEFYRLWSVDHGEQSVMTAP | soluble
MNIPTTTTKGEQAKSQLIAAALAQFGEYGLHATTRDIAALAGQNIAAITYYFGSKEDLYLACAQWIADFLGEKFRPHAEKAERLFSQPAPDRDAIRELILLACKNMIMLLTQEDTVNLSKFISREQLSPTSAYQLVHEQVIDPLHTHLTRLVAAYTGCDANDTRMILHTHALLGEVLAFRLGKETILLRTGWPQFDEEKAELIYQTVTCHIDLILHGLTQRSLD | soluble
STSTSGLTARISQTLFTSNSFVEEVASILQHWDTGLEASKRRIQDAKEKNSTVLDLQQLELSNEIFNELWPSIREIRNLKYLNLFLNRLTELPSDFGALSTLETLNLACNPLQSVPDSFSDLAMLRELDLGFTSTLCTVPEIFEKMTQLKVLYAGNNRLEKLPESVISLQCLEELHLYGNALNALPENIGNLKSLRLLNVGRNNLSSLPNSIGSLSSLEVLYLYENDLSSLPRSMKDLSKLRVLGLDGNPSLSSLPEHIKEPNAKAVAAYYAEME | soluble

* * *

# assay_overview: soluble on expression in E. coli; label from the status in PepcDB or PDB records
measurement_type: soluble on expression in E. coli

MEIIGGKEVSPHSRPFMASIQYGGHHVCGGVLIDPQWVLTAAHCQYRFTKGQSPTVVLGAHSLSKNEASKQTLEIKKFIPFSRVTSDPQSNDIMLVKLQTAAKLNKHVKMLHIRSKTSLRSGTKCKVTGWGATDPDSLRPSDTLREVTVTVLSRKLCNSQSYYNGDPFITKDMVCAGDAKGQKDSCKGDAGGPLICKGVFHAIVSGGHECGVATKPGIYTLLTKKYQTWIKSNLVPPHTN | soluble
MKGFQFKVIQEKLQGRQFINSDKIKPDHPQTIIKKTLLKEYQSKNFSCQEERDLFLEFTEKIVQNFHNINFNYLLKKFCKLPENYQSLKSQVKQIVQSENKANQQSCENLFNSLYDTEISYKQITNFLRQIIQNCVPNQLLGKKNFKVFLEKLYEFVQMKRFENQKVLDYICFMDVFDVEWFVDLKNQKFTQKRKYISDKRKILGDLIVFIINKIVIPVLRYNFYITEKHKEGSQIFYYRKPIWKLVSKLTIVKLEEENLEKVEEKL | soluble

* * *

# assay_overview: soluble on expression in E. coli; label from the status in PepcDB or PDB records
measurement_type: soluble on expression in E. coli

Solved entries:
MRQHTRIANHNHYSWRIAVMTDTHSIAQPFEAEVSPANNRHVTVGYASRYPDYSRIPAITLKGQWLEAAGFATGTAVDVKVMEGCIVLTAQPPAAEESELMQSLRQVCKLSARKQKQVQAFIGVIAGKQKVA | not soluble
DRLTEEYGMHVYGIEFDEDRIIELRDRGYRIVAGDVTDPELWRRIELLDIPQLFAMSLPRYTDSDKVLARIHHDYPGATVATITQTRGREQALLTAGADVAVYLYEGVGDELADQAVAHLRQG | not soluble
MSLSDKKVLCVEDEEVIRSNLMETLELFFDKVSGAKDGFEALEQAMCDTYDVFIFDISIPHLDGLEVLKRVRQFNKKTPIVILSAHKEQEYLWRAVELKITRYLTKPYDKNSLIKALEEVALELMDYHPLFQISPLHSYDFCRKAMTCKGEMVYLSKKREPTEGHHHHHH | not soluble
MAPAPAAEFWEARYRDTGRVWSGRPNELLVQEAGGLAPGTALDLGCGEGADAVWLASRGWRVTGVDISATALERAAGHADGAGVGDRVLWERHELGPSFPEGSFDLVSAHYLQSPVALDQQAVLRAAARAVAPGGTLLVVMHAGWPSWQTEPPFDAAFPTLDGVLAELALPEGEWSVETRRTARRPLEHHHHHH | not soluble
MSLKRALAALVLLGAVAQAQTGHAGHSVGSVSTGVSMPAMSKQMVSALGPLRGRAFDIKFAQLMMDHHQMALDMAGQELSSGKNAQVRAAAKKVVAAQQQEIALMTGWLRKWTGKVYVPQTLPMVLTGTVNTDRWFLTEMLPHHQGAVDMSKLAAGRSGSSEVKKLALSIIRSQTAEMNTYRQLLKTVKEGHHHHHH | soluble

Could you share which soluble on expression in E. coli value was measured for EVKLQESGPSLVKPSQTLSLTCSVTGDSITSDFWSWIRQFPGNRLEYMGFVQYSGETAYNPSLKSRISITRDTSKNQYYLDLNSVTTEDTAVYYCANWHGDYWGQGTTVTVSSAKTTPPSVYPLAPGSAAQTNSMVTLGCLVKGYFPEPVTVTWNSGSLSSGVHTFPAVLQSDLYTLSSSVTVPSSTWPSETVTCNVAHPASSTKVDKKIVPRDCHHHHHH ?
soluble

Item MAVGAALPPIPEGAPVLIAGPTASGKSALALEIAERFGGVIVNADASQVYDCWRAISARPSPEEEARAPHLLYGHLPYDAPYSAGHWLREVTPLLDGTARPIIVGGTGLYFTALTEGMADIPATPPDVRAEADTLPLDRLLAGIDPATAAGLDRNNRARVQRAWEVERATGRALHLWQADTPPPPLPLARTVPLVLEVDKLWLWDRIARRFDQMLDQGALDEVAAMAARYDPALPAFKAIGVPELMAHLRGEITLDAARERASIATRQYAKRQRSWFRARMGDWHRLPVGGLEHHHHHH has what recorded soluble on expression in E. coli?
not soluble

* * *

# assay_overview: soluble on expression in E. coli; label from the status in PepcDB or PDB records
measurement_type: soluble on expression in E. coli

A selection of reference data follows.
MKAANSGRTAAALECFERVVKLQSTPVNWSYLAFCVARERQQFEHATRLCEEAVRREPRSSVLYLNLGKVYLLSGRKDDAIRTFRQGLLYERNTLIESELRRLGLRKPPVLNFLAREHPVNKYLGIMLKKLKIRLEHHHHHH | not soluble
MAHHHHHHMANISPNSDGDSFVGADTAKQLSDIQKKLNDLKQRREELEEQRRRILGASDQSSSRPRSLRGPTQNRRRHSQPSQRTLPLRPPRPPISDHSIRIPNEKERQQTAQRTPYLEMKESMRRSWSRDSSLVMGSFLMEDNPRARTFTRERRFIPPPECNGIYFLGTEMELMIRNKNVAPSQRSGRRDNTPYRWNDIIDGVTPGPGAYTPLFSKVSKPSRRAQLF | not soluble
MSLSGIYEIAILGRATWQLHSLNNEGTVGNVTEPRSVRIIDPNTKKAVTTDGISGEMLKHIHTEIMWTLDDKNNLCDACKVLNPEKFNFAIKSKKATPKDVEDALKQALNTCDICDVQGFLLERPTASRKSTVEFGWALGIPEVYRDIHTHARHALGEKGKREKTEESEEEVGGVSTQMVYHRPTRSGVYAIISVFQPWRIGLNEAKQDKYTYDANDNARERRYQLALKAYPLLFARPEGAMTTTRLPHVEDFSGVIVYSTKPIPVPIISPLKSNYVDEVKTIVENIDDSLKVAEFNGIAEFAMKIGELIKNKPYKMEFEGHHHHHH | soluble
MRHREWSRATEGDRTMATTIATLTQKTDGILEGVFATIRVNAPIAIIPNASKSSEEAPDYRVIHRKTGFEIGAGWNRIARQTGEEYLSVKLEAPEIGVIFGNLAPAPGGDPSKKVILWNNPD | not soluble
MSLSEELSFSAMVKAELALLTPELPCCRRMELAGLVRALGRLELSGRGRFALTLSTDSAPVSRKVIRLLKSVSPVRYEVMVMRRRKLRKNLVYRVHIPHQPGVAELLQLAGFIDEAGRPADWVEPPELANDHCRRAFLRGTFLGSGWVAGPEKQHHLEITTTATEAADALGQMLFRGGIAARMVARRESLVLYIKEADQIIRFLGLVGAHQALLRYEEVRVIKEMKNQVNRQVNAEVANMTKQADAAARQVEAIKRLEAAGALERVSPPLRELAGLRLAYPDASLKELGELCRPPVSKSGAAHRMRQLMALAESLEEGHHHHHH | soluble

Lab note: next sequence to report on.
Suppose we examine the sequence MGSDKIHHHHHHMSKNEIIWFDGKWSDSGVPMIGAADHAFWMASTVFDGARAINGHLPDLSAHSQRVINSALTMGMKPKIDRQEIERLVHEGMSHLTNQETDYYIKMLFFCPGGFLLPDADTTTFALHIFEAPLPEDKGFSATFSEYRRPAPSMAPTEAKASCLYPNTQRIIRDAIARGFENAVVLDSDGNVAEFAVANLWIVRDGVALTPTPNGSFLNGITRQRVMALLRDDGITVRETQLAPSDVMEADEVFSTGNHGKVLHCNRVEDRSLPYGPIAQRARELYMAYAHTC ; what soluble on expression in E. coli value has been reported?
not soluble

* * *

# assay_overview: soluble on expression in E. coli; label from the status in PepcDB or PDB records
measurement_type: soluble on expression in E. coli

MAHHHHHHMFFCPFCSTLLLVVPHVEGNALVCATCRYVHSVASASPQVPRNAFGEPILTIQHSFVAHNRQLMDAEEDPAMEAAASSSAAACHTTAAFTPVVKAETSAEGGQITTIPCQNEDNPCQSTKAYFIQIQMRSADEPATVFFKCVECGHQWRQD | not soluble
MNEALDDIDRILVRELAADGRATLSELATRAGLSVSAVQSRVRRLESRGVVQGYSARINPEAVGHLLSAFVAITPLDPSQPDDAPARLEHIEEVESCYSVAGEESYVLLVRVASARALEDLLQRIRTTANVRTRSTIILNTFYSDRQHIP | soluble
GMRNPSEDHMMRTPYQIVADHYAASDRHDPAAMMADIAPAIEWTEMAGFPCAGTYRSADEIVRNVFRRLGEEWDGYTFKLDALHDAGDTVIGVGRYSGTYRRTGKSFECRVAHVWRVDAGKIVHFEQFTDTLLVAQAMQP | soluble
EKAQLIGPEDADITFVTWGSQKGPILDVIEDLKQDDITANLLYLKMFSPFPTEFVKSILSKAHLVIDVESNFTAQAAQMIKLYTGIEIENKILKYNGRHMTEDEILNSAKNILNK | not soluble
MGSDKIHHHHHHMIRKIVEIDQEKCNGCGICVPACAEGAIRIENGKAVLAADNLCDGLGACLGECPLDAIRIIERDADEFDEAAVEAHLGQTSRESHHAAHQPAPVHGGCPGSRAMVLDRPATESVRDVPRQESRLRQWPVQLHLVPTSAPYFRNADLLIAADCVPFAYADFHREFLDGRAVVVGCPKLDDNRFYTEKLTELIRVNDLKSITVVRMEVPCCGGIVMAARQALAASSKDIPLREVTVGISGELKGA | not soluble

# input sequence: SVKVVIEADGGSRGNPGPAGYGAVVWTADHSTVLAESKQAIGRATNNVAEYRGLIAGLDDAVKLGATEAAVLMDSKLVVEQMSGRWKVKHPDLLKLYVQAQALASQFRRINYEWVPRARNTYADRLANDAMDAAAQSAAAD ; wanted: its soluble on expression in E. coli
soluble

For the sequence shown here, ITDNTLIRNDTGDGDAVYDLVLNADGLDEDYSYQLKVMEEQPSDKQANELFTQAKKEIDDSFCEENQSVEQVRGHVIMKDAYASGAVEAEWTLSDYDVVDINGDVNQDAFEEADDEQGKLISASVELSCGEHRQLYDFSFVVFPDELEAGERLIKDINRHIDSEMSKTGTKKLTLPDEVDGVKLSWSQEKSNTAAKIAMLEVVVIVLLVLEKKEKKKTAQKERNIQLQLEYPEIVSKMAVLMGSGMTVEQAWNRITARYLDERKNNDKNIMPAYEEMLVTEREISDGVTGRKAYAGFAERVKLPCYQKLVRIILQSIHKGSKGVCEMLEKESEDAFDERRLLALKLGEEAGTKM , give the reported soluble on expression in E. coli.
not soluble

Recorded soluble on expression in E. coli for MGLSPHVEALQVLQTALQTGEGFIKVTGEVGTGKTLICRKLINELPQGFHCAYLPNPYLTPAELRWAVANELGLKYTSEIDQQQLTGLIQQQLLALSTHGHAIVLVLDEAQALPDESLEALRLFTNLETESRKLLQVVLFGQPELDERLKRQAFRQLRQRITFSYNLRPLEHHHHHH , please?
not soluble
